Field: NanoBRET Fold Response. Provide a value for each of the compounds that follow.
TARGET OR SYSTEM: GRM4 (Homo sapiens, UniProt Q14833)
Construct: purchased Promega (in-house HiBiT-GPCR construct library, NanoBRET)
Sequence (Q14833 33-912): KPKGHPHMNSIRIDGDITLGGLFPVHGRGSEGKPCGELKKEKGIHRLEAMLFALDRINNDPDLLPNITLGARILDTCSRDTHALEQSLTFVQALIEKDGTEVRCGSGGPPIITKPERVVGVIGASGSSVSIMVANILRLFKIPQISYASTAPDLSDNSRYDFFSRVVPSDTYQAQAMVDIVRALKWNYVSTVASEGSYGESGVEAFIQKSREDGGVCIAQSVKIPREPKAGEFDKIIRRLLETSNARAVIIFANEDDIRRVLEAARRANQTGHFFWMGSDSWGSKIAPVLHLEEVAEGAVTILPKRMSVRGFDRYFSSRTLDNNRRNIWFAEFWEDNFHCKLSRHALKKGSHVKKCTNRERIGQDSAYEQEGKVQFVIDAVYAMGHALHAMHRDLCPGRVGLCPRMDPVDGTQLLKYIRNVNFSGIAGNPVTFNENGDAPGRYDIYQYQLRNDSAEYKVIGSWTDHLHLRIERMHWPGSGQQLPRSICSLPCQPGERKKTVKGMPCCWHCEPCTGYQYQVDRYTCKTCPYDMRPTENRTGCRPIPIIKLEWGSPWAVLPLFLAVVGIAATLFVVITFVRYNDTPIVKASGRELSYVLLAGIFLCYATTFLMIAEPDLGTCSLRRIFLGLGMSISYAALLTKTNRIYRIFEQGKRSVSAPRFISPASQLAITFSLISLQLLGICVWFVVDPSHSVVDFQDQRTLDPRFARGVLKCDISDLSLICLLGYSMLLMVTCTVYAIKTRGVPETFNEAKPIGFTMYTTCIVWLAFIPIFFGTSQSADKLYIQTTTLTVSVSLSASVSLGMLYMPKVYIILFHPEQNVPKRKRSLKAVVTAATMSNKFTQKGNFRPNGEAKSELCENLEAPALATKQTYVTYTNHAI
PROTOCOL: NanoBRET screen HiBiT-GRM4 in HEK293
Assay type: binding
EXPERIMENTAL SETUP: GRM4; tracer 0.1μM
Reply: number alone, nothing else.

IN: Enter recorded NanoBRET Fold Response with GRM4 (Homo sapiens, UniProt Q14833) for `COc1ccccc1N1CCN(CCCCN2C(=O)c3ccc(CNC(=O)CCOCCNC(=O)c4ccc(CNC(=O)CCc5ccc6n5[B-](F)(F)[N+]5=C(c7ccc[nH]7)C=CC5=C6)cc4)cc3C2=O)CC1` here.
OUT: 1.14

IN: Specify the recorded NanoBRET Fold Response for Cc1nc2n(c(=O)c1CCN1CCC(c3noc4cc(F)ccc34)CC1)CCCC2OC(=O)NCCOCCOCCOCCOCCNC(=O)CCc1ccc2n1[B-](F)(F)[N+]1=C(c3ccc[nH]3)C=CC1=C2 (centres unmarked) , system: GRM4 (Homo sapiens, UniProt Q14833).
OUT: 0.98

IN: Lab note: GRM4 (Homo sapiens, UniProt Q14833) assay, enter NanoBRET Fold Response for `O=C(CCOCCOCCOCCOCCNC(=O)CCc1ccc2n1[B-](F)(F)[N+]1=C(c3ccc[nH]3)C=CC1=C2)NCCCN1CCN(C2=Nc3ccccc3Oc3ccc(Cl)cc32)CC1` here
OUT: 1.04

IN: Report measured NanoBRET Fold Response on GRM4 (Homo sapiens, UniProt Q14833); entry: `COc1ccccc1N1CCN(CCCCN2C(=O)c3ccc(CNC(=O)CCOCCOCCOCCOCCNC(=O)CCc4ccc5n4[B-](F)(F)[N+]4=C(c6ccc[nH]6)C=CC4=C5)cc3C2=O)CC1`
OUT: 0.98

IN: Write NanoBRET Fold Response of O=C(CCc1ccc2n1[B-](F)(F)[N+]1=C(c3ccc[nH]3)C=CC1=C2)NCc1ccc(C(=O)NCCOCCC(=O)N[C@@H]2CC[C@@]3(O)[C@H]4Cc5ccc(O)c6c5[C@@]3(CCN4CC3CC3)[C@H]2O6)cc1 [Naltrexone-3-NB590] ; system used: GRM4 (Homo sapiens, UniProt Q14833)
OUT: 0.75

---

Answer each item with its documented NanoBRET Fold Response.
TARGET OR SYSTEM: MTNR1A (Homo sapiens)
Construct: purchased Promega (in-house HiBiT-GPCR construct library, NanoBRET)
Sequence (P48039 whole entry): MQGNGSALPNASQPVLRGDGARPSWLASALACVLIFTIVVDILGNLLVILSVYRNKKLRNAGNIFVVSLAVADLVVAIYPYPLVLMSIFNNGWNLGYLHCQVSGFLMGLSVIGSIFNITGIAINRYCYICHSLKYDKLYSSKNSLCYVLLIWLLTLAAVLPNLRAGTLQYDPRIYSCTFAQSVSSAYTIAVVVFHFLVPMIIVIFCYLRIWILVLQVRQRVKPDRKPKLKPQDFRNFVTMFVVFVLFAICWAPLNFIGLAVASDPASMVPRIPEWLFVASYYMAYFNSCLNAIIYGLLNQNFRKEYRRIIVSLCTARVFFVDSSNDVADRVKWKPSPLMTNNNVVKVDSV
PROTOCOL: NanoBRET screen HiBiT-MTNR1A in HEK293
Format: binding
EXPERIMENTAL SETUP: MTNR1A; tracer 0.1μM
The answer should be a number; do not append a unit.

IN: Quick one: give measured NanoBRET Fold Response for COc1ccccc1N1CCN(CCCCN2C(=O)c3ccc(CNC(=O)CCOCCOCCOCCOCCNC(=O)CCc4ccc5n4[B-](F)(F)[N+]4=C(c6ccc[nH]6)C=CC4=C5)cc3C2=O)CC1 [NAN-190-2-NB590]
OUT: 0.99

IN: State its NanoBRET Fold Response for this compound: CCCn1c(=O)c2[nH]c(-c3ccc(OCC(=O)NCCNC(=O)CCOCCNC(=O)c4ccc(CNC(=O)CCc5ccc6n5[B-](F)(F)[N+]5=C(c7ccc[nH]7)C=CC5=C6)cc4)cc3)nc2n(CCC)c1=O [XAC-3-NB590]
OUT: 1.02

IN: Please give the documented NanoBRET Fold Response of COc1ccccc1N1CCN(CCCCN2C(=O)c3ccc(CNC(=O)CCOCCNC(=O)c4ccc(CNC(=O)CCc5ccc6n5[B-](F)(F)[N+]5=C(c7ccc[nH]7)C=CC5=C6)cc4)cc3C2=O)CC1 [NAN-190-3-NB590]
OUT: 1.01

IN: Name the recorded NanoBRET Fold Response of the item N#CN=C(NCCCOc1cccc(CN2CCCCC2)c1)NCCNC(=O)CCOCCOCCOCCOCCNC(=O)CCc1ccc2n1[B-](F)(F)[N+]1=C(c3ccc[nH]3)C=CC1=C2 [Aminopotentidine-2-NB590] in your answer.
OUT: 1.00

IN: Answer with the recorded NanoBRET Fold Response for the compound listed here: O=C(CCc1ccc2n1[B-](F)(F)[N+]1=C(c3ccc[nH]3)C=CC1=C2)NCCOCCOCCNC(=O)OCCOCCN1CCN(C2=Nc3ccccc3Sc3ccccc32)CC1 [Quetiapine-a-2-NB590]
OUT: 1.00

---

Assign NanoBRET Fold Response to each entry below.
TARGET OR SYSTEM: LGR4 (Homo sapiens, UniProt Q9BXB1)
Construct: purchased Promega (in-house HiBiT-GPCR construct library, NanoBRET)
Sequence (Q9BXB1 25-951): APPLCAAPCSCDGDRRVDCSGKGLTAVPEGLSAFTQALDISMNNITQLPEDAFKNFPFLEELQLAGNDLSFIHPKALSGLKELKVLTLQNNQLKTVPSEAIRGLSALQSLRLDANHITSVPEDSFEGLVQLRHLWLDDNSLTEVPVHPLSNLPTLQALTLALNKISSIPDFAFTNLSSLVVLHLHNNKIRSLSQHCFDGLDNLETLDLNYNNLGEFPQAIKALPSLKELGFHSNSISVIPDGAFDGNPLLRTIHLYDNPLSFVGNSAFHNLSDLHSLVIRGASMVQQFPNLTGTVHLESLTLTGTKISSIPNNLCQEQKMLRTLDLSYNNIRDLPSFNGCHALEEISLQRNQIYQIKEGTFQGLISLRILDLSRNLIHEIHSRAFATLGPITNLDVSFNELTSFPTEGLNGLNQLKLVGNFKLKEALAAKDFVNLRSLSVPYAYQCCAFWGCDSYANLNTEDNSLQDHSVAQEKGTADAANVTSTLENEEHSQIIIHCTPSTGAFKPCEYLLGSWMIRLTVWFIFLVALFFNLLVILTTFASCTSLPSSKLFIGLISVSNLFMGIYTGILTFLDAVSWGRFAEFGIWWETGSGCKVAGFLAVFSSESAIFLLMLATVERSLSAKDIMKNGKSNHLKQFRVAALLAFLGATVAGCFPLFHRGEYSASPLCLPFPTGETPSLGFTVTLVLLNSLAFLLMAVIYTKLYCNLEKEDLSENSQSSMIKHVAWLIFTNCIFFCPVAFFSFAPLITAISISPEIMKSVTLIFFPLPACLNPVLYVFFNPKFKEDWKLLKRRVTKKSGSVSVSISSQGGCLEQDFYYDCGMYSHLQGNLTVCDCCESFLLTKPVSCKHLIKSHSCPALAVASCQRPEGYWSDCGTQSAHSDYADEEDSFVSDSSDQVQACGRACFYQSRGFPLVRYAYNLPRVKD
PROTOCOL: NanoBRET screen HiBiT-LGR4 in HEK293
Assay type: binding
EXPERIMENTAL SETUP: LGR4; tracer 1μM
Experimental: Each tracer candidate was screened across the entire library of HiBiT-GPCR constructs using NanoBRET as the detection modality. As depicted in Figure 4A, the specificity of interactions was evaluated through decrease in BRET due to competitive displacement of a bound tracer by excess parental compound. Each tracer was analyzed for binding to each HiBiT-GPCR fusion in the absence and in the presence of competing parental compound. […]

IN: Consider the molecule `COc1ccccc1N1CCN(CCCCN2C(=O)c3ccc(CNC(=O)CCOCCNC(=O)c4ccc(CNC(=O)CCc5ccc6n5[B-](F)(F)[N+]5=C(c7ccc[nH]7)C=CC5=C6)cc4)cc3C2=O)CC1` . State its measured NanoBRET Fold Response.
OUT: 0.95

IN: Give the reported value of NanoBRET Fold Response for this record: `CC(C)N(CC[C@H](c1ccccc1)c1cc(CCNC(=O)c2ccc(CNC(=O)CCc3ccc4n3[B-](F)(F)[N+]3=C(c5ccc[nH]5)C=CC3=C4)cc2)ccc1O)C(C)C`
OUT: 1.02

IN: Determine from records and report NanoBRET Fold Response for `O=C(CCc1ccc2n1[B-](F)(F)[N+]1=C(c3ccc[nH]3)C=CC1=C2)NCCOCCOCCNC(=O)OCCOCCN1CCN(C2=Nc3ccccc3Sc3ccccc32)CC1`
OUT: 1.05

IN: Return value of NanoBRET Fold Response for input `COc1ccccc1N1CCN(CCCCN2C(=O)c3ccc(CNC(=O)CCOCCOCCOCCOCCNC(=O)CCc4ccc5n4[B-](F)(F)[N+]4=C(c6ccc[nH]6)C=CC4=C5)cc3C2=O)CC1` , no commentary.
OUT: 0.99

IN: Determine its reported NanoBRET Fold Response: `CCCn1c(=O)c2[nH]c(-c3ccc(OCC(=O)NCCNC(=O)CCOCCNC(=O)c4ccc(CNC(=O)CCc5ccc6n5[B-](F)(F)[N+]5=C(c7ccc[nH]7)C=CC5=C6)cc4)cc3)nc2n(CCC)c1=O`
OUT: 0.99

---

Give NanoBRET Fold Response for every item shown.
TARGET OR SYSTEM: P2RY13 (Homo sapiens, UniProt Q9BPV8)
Construct: purchased Promega (in-house HiBiT-GPCR construct library, NanoBRET)
Sequence (Q9BPV8 whole entry, one chain of several): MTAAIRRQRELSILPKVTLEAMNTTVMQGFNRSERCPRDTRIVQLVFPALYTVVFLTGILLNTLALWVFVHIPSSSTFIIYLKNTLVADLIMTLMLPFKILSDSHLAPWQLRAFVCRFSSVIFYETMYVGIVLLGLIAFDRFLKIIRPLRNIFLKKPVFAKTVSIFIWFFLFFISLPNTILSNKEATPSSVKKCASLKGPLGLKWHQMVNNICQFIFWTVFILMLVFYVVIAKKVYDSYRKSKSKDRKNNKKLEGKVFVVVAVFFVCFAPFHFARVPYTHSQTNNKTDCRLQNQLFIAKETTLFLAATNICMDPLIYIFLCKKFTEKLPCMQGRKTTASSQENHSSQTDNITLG
PROTOCOL: NanoBRET screen HiBiT-P2RY13 in HEK293
Type: binding
EXPERIMENTAL SETUP: P2RY13; tracer 0.1μM
Quick one: just the number, no unit, thanks!

IN: Quote P2RY13 (Homo sapiens, UniProt Q9BPV8) NanoBRET Fold Response for entry `CC(C)N(CC[C@H](c1ccccc1)c1cc(CCNC(=O)c2ccc(CNC(=O)CCc3ccc4n3[B-](F)(F)[N+]3=C(c5ccc[nH]5)C=CC3=C4)cc2)ccc1O)C(C)C` .
OUT: 0.89

IN: Enter NanoBRET Fold Response (test system P2RY13 (Homo sapiens, UniProt Q9BPV8)) for `CC(C)N(CC[C@H](c1ccccc1)c1cc(CCNC(=O)CCOCCOCCOCCOCCNC(=O)CCc2ccc3n2[B-](F)(F)[N+]2=C(c4ccc[nH]4)C=CC2=C3)ccc1O)C(C)C`
OUT: 1.26

IN: Lab note: P2RY13 (Homo sapiens, UniProt Q9BPV8) assay, enter NanoBRET Fold Response for `O=C(CCc1ccc2n1[B-](F)(F)[N+]1=C(c3ccc[nH]3)C=CC1=C2)NCCOCCOCCNC(=O)OCCOCCN1CCN(C2=Nc3ccccc3Sc3ccccc32)CC1` here
OUT: 0.98

---

Provide the recorded NanoBRET Fold Response for the entries that follow.
TARGET OR SYSTEM: MTNR1B (Homo sapiens, UniProt P49286)
Construct: purchased Promega (in-house HiBiT-GPCR construct library, NanoBRET)
Sequence (P49286 whole entry): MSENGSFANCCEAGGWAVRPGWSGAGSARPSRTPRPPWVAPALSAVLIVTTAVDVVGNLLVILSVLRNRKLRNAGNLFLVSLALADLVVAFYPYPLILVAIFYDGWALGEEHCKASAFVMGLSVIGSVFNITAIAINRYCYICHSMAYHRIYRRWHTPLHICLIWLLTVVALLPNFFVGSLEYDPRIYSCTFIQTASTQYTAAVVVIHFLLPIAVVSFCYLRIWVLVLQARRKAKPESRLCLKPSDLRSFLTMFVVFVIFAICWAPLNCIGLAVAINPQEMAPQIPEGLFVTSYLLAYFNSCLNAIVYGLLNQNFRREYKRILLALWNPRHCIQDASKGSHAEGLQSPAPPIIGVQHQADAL
PROTOCOL: NanoBRET screen HiBiT-MTNR1B in HEK293
Format: binding
EXPERIMENTAL SETUP: MTNR1B; tracer 1μM
Description: Each tracer candidate was screened across the entire library of HiBiT-GPCR constructs using NanoBRET as the detection modality. As depicted in Figure 4A, the specificity of interactions was evaluated through decrease in BRET due to competitive displacement of a bound tracer by excess parental compound. Each tracer was analyzed for binding to each HiBiT-GPCR fusion in the absence and in the presence of competing parental compound. […]
Lab note: jot down the number only; don't add units.

IN: Param request: NanoBRET Fold Response | system MTNR1B (Homo sapiens, UniProt P49286) | item `CN(C)CCC=C1c2ccccc2CCc2ccc(C(=O)NCCNC(=O)CCOCCOCCOCCOCCNC(=O)CCc3ccc4n3[B-](F)(F)[N+]3=C(c5ccc[nH]5)C=CC3=C4)cc21`
OUT: 1.04

IN: Lab note: record NanoBRET Fold Response of `N#CN=C(NCCCOc1cccc(CN2CCCCC2)c1)NCCNC(=O)CCOCCOCCOCCOCCNC(=O)CCc1ccc2n1[B-](F)(F)[N+]1=C(c3ccc[nH]3)C=CC1=C2` tested on MTNR1B (Homo sapiens, UniProt P49286).
OUT: 0.99

IN: GET NanoBRET Fold Response where system = MTNR1B (Homo sapiens, UniProt P49286) and item = `CC(C)N(CC[C@H](c1ccccc1)c1cc(CCNC(=O)c2ccc(CNC(=O)CCc3ccc4n3[B-](F)(F)[N+]3=C(c5ccc[nH]5)C=CC3=C4)cc2)ccc1O)C(C)C`
OUT: 1.04

IN: Quote MTNR1B (Homo sapiens, UniProt P49286) NanoBRET Fold Response for entry `Cc1cc2c(s1)Nc1ccccc1N=C2N1CCN(CCCNC(=O)CCOCCOCCOCCOCCNC(=O)CCc2ccc3n2[B-](F)(F)[N+]2=C(c4ccc[nH]4)C=CC2=C3)CC1` .
OUT: 0.94

IN: # assay system MTNR1B (Homo sapiens, UniProt P49286): give NanoBRET Fold Response of `O=C(CCc1ccc2n1[B-](F)(F)[N+]1=C(c3ccc[nH]3)C=CC1=C2)NCCOCCOCCNC(=O)OCCOCCN1CCN(C2=Nc3ccccc3Sc3ccccc32)CC1`
OUT: 0.92
